Hey, just so you know, these numbers are from patent USRE47150.

ASSAYED_TARGET: T1, human tissue factor pathway inhibitor (TFPI) (human, UniProt P10646 29-304, limits assumed)
T1 construct: bought; also called hTFPI; human TFPI
T1 sequence (looked up): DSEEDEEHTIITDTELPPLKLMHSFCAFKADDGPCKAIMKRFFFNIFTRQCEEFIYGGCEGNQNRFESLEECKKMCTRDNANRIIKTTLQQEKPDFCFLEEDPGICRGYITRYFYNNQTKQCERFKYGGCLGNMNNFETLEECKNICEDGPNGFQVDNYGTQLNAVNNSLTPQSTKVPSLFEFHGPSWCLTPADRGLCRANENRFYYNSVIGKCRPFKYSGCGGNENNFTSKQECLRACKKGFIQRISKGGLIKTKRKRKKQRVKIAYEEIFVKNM
PROTOCOL: competitive ELISA
MEASURE: variant/HC_D62R (ratio)
// units = ratio; emit number, no label

{"columns": ["BINDER", "SCALE_UNIT", "variant/HC_D62R"],
 "data": [
  ["4B7 HC N32D+D62R+H107M+Y112D/LC S32R+N35T+D97T (Fab, V domains shown) VH: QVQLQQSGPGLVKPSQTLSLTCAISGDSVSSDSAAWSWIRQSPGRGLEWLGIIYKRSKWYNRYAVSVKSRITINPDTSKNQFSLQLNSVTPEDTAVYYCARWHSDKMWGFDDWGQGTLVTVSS VL: DIVMTQSPLSLPVTPGEPASISCRSSQSLVFRDGTTYLNWYLQKPGQSPQLLIYKGSNRASGVPDRFSGSGSGTDFTLKISRVEAEDVGVYYCQQYTSYPLTFGQGTKVEIKR", "ratio", 27.7],
  ["4B7 HC N32D+D62R+H107M+Y112D/LC D33F+N35T+Y37F (Fab, V domains shown) VH: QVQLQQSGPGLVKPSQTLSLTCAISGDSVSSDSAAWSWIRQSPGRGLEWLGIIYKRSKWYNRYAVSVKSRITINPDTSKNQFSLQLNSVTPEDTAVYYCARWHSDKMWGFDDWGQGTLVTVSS VL: DIVMTQSPLSLPVTPGEPASISCRSSQSLVFSFGTTFLNWYLQKPGQSPQLLIYKGSNRASGVPDRFSGSGSGTDFTLKISRVEAEDVGVYYCQQYDSYPLTFGQGTKVEIKR", "ratio", 35.7],
  ["4B7 HC N32D+I53T+D62R+Y112D/LC S32R+D33F+N35I+D97T (Fab, V domains shown) VH: QVQLQQSGPGLVKPSQTLSLTCAISGDSVSSDSAAWSWIRQSPGRGLEWLGITYKRSKWYNRYAVSVKSRITINPDTSKNQFSLQLNSVTPEDTAVYYCARWHSDKHWGFDDWGQGTLVTVSS VL: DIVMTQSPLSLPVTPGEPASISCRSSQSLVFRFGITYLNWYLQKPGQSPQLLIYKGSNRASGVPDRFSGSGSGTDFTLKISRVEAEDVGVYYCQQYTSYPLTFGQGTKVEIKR", "ratio", 19.6]
]}

Query string: Reported variant/HC_D62R for 4B7 HC N32D+D62R+H107M+Y112D/LC F31I+S32R+D33F+N35T (Fab, V domains shown) VH: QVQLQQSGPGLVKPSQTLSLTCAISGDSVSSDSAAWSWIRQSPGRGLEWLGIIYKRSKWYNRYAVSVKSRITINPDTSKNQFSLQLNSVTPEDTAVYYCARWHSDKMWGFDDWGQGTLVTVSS VL: DIVMTQSPLSLPVTPGEPASISCRSSQSLVIRFGTTYLNWYLQKPGQSPQLLIYKGSNRASGVPDRFSGSGSGTDFTLKISRVEAEDVGVYYCQQYDSYPLTFGQGTKVEIKR : what is it?
Result string: 29.5
